- Test system: angiogenesis genes in dermal microvascular endothelial cells
- protocolDescription: Real time RT-PCR of angiogenesis gene expression during endothelial tube formation
- Type: cell-based
- reportedConditions: 1 μM SM, 24 hours
True means recorded Log2 fold-change of gene expression: Calcr1 is -4 or above; False means it is below -4.

                                   molecule  classlabel
0                   CCC(=O)OCN1C(=O)C=CC1=O       False
1  O=C1C(=Cc2ccccc2)C(NC2CCCCC2)c2ccccc21 (stereo not drawn)       False
2           CC1CCN(CC[S-])CC1.O.O.[Cl][Pt+]       False
3  COc1ccc(CC2C(=O)NC(C)C(=O)N(C)C3Cc4ccc(cc4)Oc4cc(ccc4O)CC(C(=O)NC(C)C(=O)NC(C)C(=O)N2C)N(C)C3=O)cc1 (stereo not drawn)        True

Now for a further molecule.
Tell me whether Log2 fold-change of gene expression: Calcr1 is at least -4 here: COc1cc2cc(c1Cl)N(C)C(=O)CC(OC(=O)C(C)C)C1(C)OC1C(C)C1CC(O)(NC(=O)O1)C(OC)/C=C/C=C(\C)C2 (stereo not drawn) True

====

- System: angiogenesis genes in dermal microvascular endothelial cells
- protocolDescription: Real time RT-PCR of angiogenesis gene expression during endothelial tube formation
- Type: cell-based
- reportedConditions: 1 μM SM, 24 hours
Label Yes when Log2 fold-change of gene expression: DUT >= -0.8; otherwise No.

Answered cases to consult:
>>> print(df.to_string())
                                   compound  classlabel
0  COC(=O)C1CC(=O)C(C(=O)OC)CC1=O (stereo not drawn)          No
1  O=C1C(=Cc2ccccc2)C(NC2CCCCC2)c2ccccc21 (stereo not drawn)         Yes
2  COc1ccc(CC2C(=O)NC(C)C(=O)N(C)C3Cc4ccc(cc4)Oc4cc(ccc4O)CC(C(=O)NC(C)C(=O)NC(C)C(=O)N2C)N(C)C3=O)cc1 (stereo not drawn)          No
3           CC1CCN(CC[S-])CC1.O.O.[Cl][Pt+]          No

Okay, now this compound:
Reported Log2 fold-change of gene expression: DUT at or above -0.8? COc1cc2cc(c1Cl)N(C)C(=O)CC(OC(=O)C(C)C)C1(C)OC1C(C)C1CC(O)(NC(=O)O1)C(OC)/C=C/C=C(\C)C2 (stereo not drawn) Yes

====

- System: angiogenesis genes in dermal microvascular endothelial cells
- protocolDescription: Real time RT-PCR of angiogenesis gene expression during endothelial tube formation
- Assay type: cell-based
- reportedConditions: 1 μM SM, 24 hours
experimentalReadout: Log2 fold-change of gene expression: Entpd1
No unit in the answer, only the number.

Before answering, review these 3 worked examples.
In [3]: df
Out[3]:
                                   compound  measuredresult
0           CC1CCN(CC[S-])CC1.O.O.[Cl][Pt+]            −8.3
1  COc1cc2cc(c1Cl)N(C)C(=O)CC(OC(=O)C(C)C)C1(C)OC1C(C)C1CC(O)(NC(=O)O1)C(OC)/C=C/C=C(\C)C2 (stereo not drawn)            −5.5
2  COc1ccc(CC2C(=O)NC(C)C(=O)N(C)C3Cc4ccc(cc4)Oc4cc(ccc4O)CC(C(=O)NC(C)C(=O)NC(C)C(=O)N2C)N(C)C3=O)cc1 (stereo not drawn)            −5.6

compound "CCC(=O)OCN1C(=O)C=CC1=O" , Log2 fold-change of gene expression: Entpd1 observed: −4.9

Consider O=C1C(=Cc2ccccc2)C(NC2CCCCC2)c2ccccc21 (stereo not drawn) . Its measured Log2 fold-change of gene expression: Entpd1 is −8.9

Lookup result for COC(=O)C1CC(=O)C(C(=O)OC)CC1=O (stereo not drawn) ; measured Log2 fold-change of gene expression: Entpd1: −0.3

====

- Tested on: angiogenesis genes in dermal microvascular endothelial cells
- protocolDescription: Real time RT-PCR of angiogenesis gene expression during endothelial tube formation
- Assay type: cell-based
- reportedConditions: 1 μM SM, 24 hours
Entries and their measured Log2 fold-change of gene expression: ANGPT2 follow.

// solved cases for Log2 fold-change of gene expression: ANGPT2 follow
compound	measuredResult
CC1CCN(CC[S-])CC1.O.O.[Cl][Pt+] [compound 292596]	0.8
O=C1C(=Cc2ccccc2)C(NC2CCCCC2)c2ccccc21 (stereo not drawn) [compound 150117]	−1.2
COc1ccc(CC2C(=O)NC(C)C(=O)N(C)C3Cc4ccc(cc4)Oc4cc(ccc4O)CC(C(=O)NC(C)C(=O)NC(C)C(=O)N2C)N(C)C3=O)cc1 (stereo not drawn) [compound 259969]	0.9
CCC(=O)OCN1C(=O)C=CC1=O [compound 19630]	−1.8
COc1cc2cc(c1Cl)N(C)C(=O)CC(OC(=O)C(C)C)C1(C)OC1C(C)C1CC(O)(NC(=O)O1)C(OC)/C=C/C=C(\C)C2 (stereo not drawn) [compound 292222]	−1.3

Per the records, this compound ( COC(=O)C1CC(=O)C(C(=O)OC)CC1=O (stereo not drawn) [Compound 122567] ) has Log2 fold-change of gene expression: ANGPT2 equal to −0.9

====

- Tested on: angiogenesis genes in dermal microvascular endothelial cells
- protocolDescription: Real time RT-PCR of angiogenesis gene expression during endothelial tube formation
- Type: cell-based
- reportedConditions: 1 μM SM, 24 hours
experimentalReadout: Log2 fold-change of gene expression: IFNG

                                   compound  measuredresult
0           CC1CCN(CC[S-])CC1.O.O.[Cl][Pt+]             6.5
1                   CCC(=O)OCN1C(=O)C=CC1=O             4.7
2  COC(=O)C1CC(=O)C(C(=O)OC)CC1=O (stereo not drawn)             8.3
3  O=C1C(=Cc2ccccc2)C(NC2CCCCC2)c2ccccc21 (stereo not drawn)            −1.9
4  COc1ccc(CC2C(=O)NC(C)C(=O)N(C)C3Cc4ccc(cc4)Oc4cc(ccc4O)CC(C(=O)NC(C)C(=O)NC(C)C(=O)N2C)N(C)C3=O)cc1 (stereo not drawn)             6.0

According to the records, this compound COc1cc2cc(c1Cl)N(C)C(=O)CC(OC(=O)C(C)C)C1(C)OC1C(C)C1CC(O)(NC(=O)O1)C(OC)/C=C/C=C(\C)C2 (stereo not drawn) displays Log2 fold-change of gene expression: IFNG of 3.1

====

- Test system: angiogenesis genes in dermal microvascular endothelial cells
- protocolDescription: Real time RT-PCR of angiogenesis gene expression during endothelial tube formation
- Assay type: cell-based
- reportedConditions: 1 μM SM, 24 hours
Log2 fold-change of gene expression: MRC2 vs 0.6: at or above is Condition met, below is Condition not met.

Record excerpt, results attached:
>>> print(df.to_string())
                                   compound         classlabel
0  COc1ccc(CC2C(=O)NC(C)C(=O)N(C)C3Cc4ccc(cc4)Oc4cc(ccc4O)CC(C(=O)NC(C)C(=O)NC(C)C(=O)N2C)N(C)C3=O)cc1 (stereo not drawn)  Condition not met
1           CC1CCN(CC[S-])CC1.O.O.[Cl][Pt+]  Condition not met
2  O=C1C(=Cc2ccccc2)C(NC2CCCCC2)c2ccccc21 (stereo not drawn)  Condition not met
3                   CCC(=O)OCN1C(=O)C=CC1=O      Condition met

Kindly review the next compound as well.
Determine whether this compound has Log2 fold-change of gene expression: MRC2 no lower than 0.6: COC(=O)C1CC(=O)C(C(=O)OC)CC1=O (stereo not drawn) Condition met

====

- Test system: angiogenesis genes in dermal microvascular endothelial cells
- protocolDescription: Real time RT-PCR of angiogenesis gene expression during endothelial tube formation
- Type: cell-based
- reportedConditions: 1 μM SM, 24 hours
Parameter threshold = -2. Response is Met when Log2 fold-change of gene expression: 9569 meets or exceeds it, else Not met.

Consider the worked cases shown below.
>>> df
                                   compound                         measurementtarget  classlabel
0  O=C1C(=Cc2ccccc2)C(NC2CCCCC2)c2ccccc21 (stereo not drawn)  angiogenesis genes in dermal microvascular endothelial cells     Not met
1                   CCC(=O)OCN1C(=O)C=CC1=O  angiogenesis genes in dermal microvascular endothelial cells     Not met
2  COc1ccc(CC2C(=O)NC(C)C(=O)N(C)C3Cc4ccc(cc4)Oc4cc(ccc4O)CC(C(=O)NC(C)C(=O)NC(C)C(=O)N2C)N(C)C3=O)cc1 (stereo not drawn)  angiogenesis genes in dermal microvascular endothelial cells         Met
3  COc1cc2cc(c1Cl)N(C)C(=O)CC(OC(=O)C(C)C)C1(C)OC1C(C)C1CC(O)(NC(=O)O1)C(OC)/C=C/C=C(\C)C2 (stereo not drawn)  angiogenesis genes in dermal microvascular endothelial cells         Met

hey, is Log2 fold-change of gene expression: 9569 for this one >= -2? COC(=O)C1CC(=O)C(C(=O)OC)CC1=O (stereo not drawn) Not met

Origin of the recorded values: patent US9504729B2
